experimentalSystem: MMP-1 (Homo sapiens, UniProt P03956)
Construct: made in house; host or cells: MMP-1-transfected HT-1080 cells (spent media)
Sequence (P03956 100-469): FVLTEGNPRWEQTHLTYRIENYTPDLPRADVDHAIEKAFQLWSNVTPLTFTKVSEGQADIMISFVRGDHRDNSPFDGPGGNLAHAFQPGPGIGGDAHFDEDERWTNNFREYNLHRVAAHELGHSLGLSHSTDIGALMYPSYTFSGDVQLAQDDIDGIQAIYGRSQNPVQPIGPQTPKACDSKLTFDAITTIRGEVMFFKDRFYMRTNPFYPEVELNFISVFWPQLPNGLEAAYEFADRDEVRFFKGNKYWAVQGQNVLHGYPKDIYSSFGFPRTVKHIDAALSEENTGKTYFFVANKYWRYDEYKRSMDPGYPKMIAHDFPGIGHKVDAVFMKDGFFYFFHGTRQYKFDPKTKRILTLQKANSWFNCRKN
testProtocol: In vitro MMP inhibition, Ki determination (fluorogenic substrate II)
Type: biochemical
conditionLabel: value outside parentheses; read-out: MMP-1 Ki
Protocol: Several hydroxamic acids and salts thereof were analyzed in in vitro assays to determine their ability to inhibit the MMP cleavage of peptide substrates. […] and IC50 constants were calculated from the assayed hydroxamic acid-MMP interactions. […] The assays from which the Ki determinations were made were performed as follows. […] In the absence of MMP inhibitory activity, substrate II was cleaved at the Gly-Leu bond resulting in an increase of relative fluorescence. […]
pKi: −log10 of the molar value.
endpointName: pKi

1) O=C(NO)C1(S(=O)(=O)N2CCN(c3ccc(CCCC(F)(F)F)cc3)CC2)CCOCC1    < 5.00
2) CCCCc1ccc(C2(O)CCN(S(=O)(=O)C3(C(=O)NO)CCOCC3)CC2)nc1    < 5.00
3) O=C(NO)C1(S(=O)(=O)N2CCC(c3ccc(CCC(F)(F)C(F)(F)F)cn3)CC2)CCOCC1    5.23
4) O=C(NO)C1(S(=O)(=O)N2CCN(c3ccc(-c4ccccc4F)cn3)CC2)CCOCC1    5.62
5) Cc1cccc(-c2csc(N3CCN(S(=O)(=O)C4(C(=O)NO)CCOCC4)CC3)n2)c1    < 5.00
6) COC(=O)c1ccc(N2CCN(S(=O)(=O)C3(C(=O)NO)CCOCC3)CC2)cc1    5.73
7) O=C(NO)C1(S(=O)(=O)N2CCC(COCc3ccc(SC(F)(F)F)cc3)CC2)CCOCC1    5.08
8) O=C(NO)C1(S(=O)(=O)N2CCN(c3ncc(-c4cccnc4)s3)CC2)CCOCC1    5.57
9) O=C(NO)C1(S(=O)(=O)N2CCN(c3ccc(OCCCC(F)(F)F)cc3)CC2)CC(O)C1 (stereo not shown)    < 5.00
10) O=C(NO)C1(S(=O)(=O)N2CCN(c3ccc(OCC(F)(F)C(F)F)cc3)CC2)CCOCC1 [Example 336]    5.58
11) O=C(NO)C1(S(=O)(=O)N2CCN(c3ccc(-c4nn[nH]n4)cc3)CC2)CCOCC1    < 5.00
12) CCCCc1ccc(C2CCN(S(=O)(=O)C3(C(=O)NO)CCN(CC)CC3)CC2)nc1    < 5.00
13) O=C(NO)C1(S(=O)(=O)N2CCN(c3cnn(-c4ccccc4)c(=O)c3Cl)CC2)CCOCC1    < 5.00
14) CCCCOc1ccc(N2CCN(S(=O)(=O)C3(C(=O)NO)CCN(C(=O)CN)CC3)CC2)cc1    < 5.00
15) CCCCOc1ccc(N2CCN(S(=O)(=O)C3(C(=O)NO)CCN(Cc4cccnc4)CC3)CC2)cc1F    < 5.00
16) CCCCOc1ccc(N2CCN(S(=O)(=O)C3(C(=O)NO)CCN(c4ccc(Cl)cc4)CC3)CC2)cc1    < 5.00

----------
experimentalSystem: MMP-1 (Homo sapiens, UniProt P03956)
Construct: made in house; host or cells: MMP-1-transfected HT-1080 cells (spent media)
testProtocol: In vitro MMP inhibition, Ki determination (fluorogenic substrate II)
Assay type: biochemical
conditionLabel: value not in parenthesis; read-out: MMP-1 Ki
Entries and their Ki values follow.
endpointName: Ki (µM)

1) O=C(NO)C1(S(=O)(=O)N2CCN(c3ccc(SC(F)(F)F)cc3)CC2)CCOCC1 [Example 170]    7.81
2) CCCCc1ccc(N2CCN(S(=O)(=O)C3(C(=O)NO)CCOCC3)CC2)c(F)c1 [Example 91]    5.11
3) Cc1ccc(-c2ccc(N3CCN(S(=O)(=O)C4(C(=O)NO)CCOCC4)CC3)cc2)cc1 [Example 207]    3.25
4) CCCc1ccc(N2CCN(S(=O)(=O)C3(C(=O)NO)CCOCC3)CC2)nc1 [Example 136]    2.38
5) O=C(NO)C1(S(=O)(=O)N2CCN(c3ccc(Cl)nn3)CC2)CCOCC1 [Example 198]    8.65
6) O=C(NO)C1(S(=O)(=O)N2CCN(c3ccc(OC(F)(F)F)cc3)CC2)CCN(C2CC2)CC1 [Example 203]    7.36
7) O=C(NO)C1(S(=O)(=O)N2CCN(c3ncc(Br)cn3)CC2)CCOCC1 [Example 103]    0.686
8) O=C(NO)C1(S(=O)(=O)N2CCN(c3ccc(-c4ccc(F)cc4)cc3)CC2)CCOCC1 [Example 208]    1.73
9) CCc1ccc(N2CCN(S(=O)(=O)C3(C(=O)NO)CCN(CCOC)CC3)CC2)cc1 [Example 193]    7.18
10) O=C(NO)C1(S(=O)(=O)N2CCN(c3ccccn3)CC2)CCOCC1 [Example 169]    0.45
11) CCCCOc1ccc(N2CCN(S(=O)(=O)C3(C(=O)NO)CCN(c4cc(C)ccn4)CC3)CC2)cc1 [Example 139]    7.24
12) CCc1ccc(N2CCN(S(=O)(=O)C3(C(=O)NO)CCOCC3)CC2)nc1 [Example 114]    1.61
13) O=C(NO)C1(S(=O)(=O)N2CCN(c3ccc(OC(F)(F)C(F)F)cc3)CC2)CCSCC1 [Example 62]    2.31

----------
// reported Ki per item
experimentalSystem: MMP-14 (Homo sapiens, UniProt P50281)
Construct: The catalytic domain enzyme was expressed in E. coli inclusion bodies, solubilized in urea; made in house
testProtocol: In vitro MMP inhibition, Ki determination (fluorogenic substrate II)
Type: biochemical
conditionLabel: value outside parentheses; read-out: MMP-14 Ki
endpointName: Ki (nM)

1) O=C(NO)C1(S(=O)(=O)N2CCC(c3ccc(-c4cccs4)c(F)c3)CC2)CCOCC1    3030
2) CC(C)c1ccc(-c2cnc(N3CCN(S(=O)(=O)C4(C(=O)NO)CCOCC4)CC3)s2)cc1    50.3
3) O=C(NO)C1(S(=O)(=O)N2CCC(c3ccc(-c4ccc(F)cc4F)cn3)CC2)CCOCC1    1040
4) CCCCOc1cccc(N2CCN(S(=O)(=O)C3(C(=O)NO)CCOCC3)CC2)c1    4140
5) CCCCOc1ccc(N2CCN(S(=O)(=O)C3(C(=O)NO)CCN(C=O)CC3)CC2)cc1    1200
6) CCCCc1ccc(C2CCN(S(=O)(=O)C3(C(=O)NO)CCN(CCOC)CC3)CC2)nc1    2920
7) O=C(NO)C1(S(=O)(=O)N2CCC(COCC(F)(F)C(F)(F)F)CC2)CCOCC1    3120
8) CCN1CCC(C(=O)NO)(S(=O)(=O)N2CCN(c3ccc(-c4ccccc4)c(F)c3)CC2)CC1    4300
9) Cc1ccc(-c2cnc(N3CCN(S(=O)(=O)C4(C(=O)NO)CCOCC4)CC3)s2)cc1    75
10) O=C(NO)C1(S(=O)(=O)N2CCC(c3ccc(-c4ccc(C(F)(F)F)cc4)cn3)CC2)CCOCC1    1760
11) O=C(NO)C1(S(=O)(=O)N2CCC(c3ccc(Br)cn3)CC2)CCOCC1    31.7
12) O=C(NO)C1(S(=O)(=O)N2CCN(c3ncc(-c4ccc5c(c4)OCO5)s3)CC2)CCOCC1    150
13) O=C(NO)C1(S(=O)(=O)N2CCN(c3ncc(-c4ccccn4)s3)CC2)CCOCC1    4550
14) O=C(NO)C1(S(=O)(=O)N2CCN(c3ccc(OCC(F)(F)C(F)F)cc3)CC2)CCOCC1 [Example 326]    2430
15) O=C(NO)C1(S(=O)(=O)N2CCN(c3ccc(CCCC(F)(F)F)cn3)CC2)CCOCC1    2950

----------
Measured IC50 of individual entries
experimentalSystem: MMP-9 (Homo sapiens, UniProt P14780)
Construct: made in house; host or cells: MMP-9-transfected HT1080 cells (spent media)
Sequence (P14780 107-707 limits assumed): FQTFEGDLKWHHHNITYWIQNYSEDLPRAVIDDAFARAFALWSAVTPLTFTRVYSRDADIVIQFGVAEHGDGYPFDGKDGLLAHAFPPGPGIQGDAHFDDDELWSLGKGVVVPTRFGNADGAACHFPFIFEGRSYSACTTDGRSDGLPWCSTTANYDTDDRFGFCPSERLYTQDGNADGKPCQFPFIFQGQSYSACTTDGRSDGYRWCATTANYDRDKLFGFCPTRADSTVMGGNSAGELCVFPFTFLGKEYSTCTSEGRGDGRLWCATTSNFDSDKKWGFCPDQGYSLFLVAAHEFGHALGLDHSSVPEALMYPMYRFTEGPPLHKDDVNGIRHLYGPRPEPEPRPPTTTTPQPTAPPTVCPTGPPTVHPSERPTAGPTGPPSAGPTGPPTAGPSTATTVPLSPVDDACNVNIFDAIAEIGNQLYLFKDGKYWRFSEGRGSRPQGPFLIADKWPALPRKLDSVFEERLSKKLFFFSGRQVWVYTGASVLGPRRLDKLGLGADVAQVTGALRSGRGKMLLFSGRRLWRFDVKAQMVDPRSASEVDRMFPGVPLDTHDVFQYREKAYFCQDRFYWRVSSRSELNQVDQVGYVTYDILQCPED
testProtocol: In vitro MMP inhibition, IC50 determination (fluorogenic substrate I)
Type: biochemical
conditionLabel: value in parentheses; read-out: MMP-9 (IC-50)
endpointName: IC50 (nM)

1) CCCCOc1ccc(N2CCN(S(=O)(=O)C3(C(=O)NO)CCN(C(=O)CCC)CC3)CC2)cc1 [Example 290]    1.42
2) CCCCOc1ccc(N2CCN(S(=O)(=O)C3(C(=O)NO)CCN(c4ccc(C)cc4)CC3)CC2)cc1F [Example 296]    116
3) CCCCOc1ccc(N2CCN(S(=O)(=O)C3(C(=O)NO)CCN(CC4CC4)CC3)CC2)cc1 [Example 298]    3
4) CCCCOc1ccc(N2CCN(S(=O)(=O)C3(C(=O)NO)CCN(C4CC4)CC3)CC2)cc1 [Example 301]    0.6
5) COCCOc1ccc(N2CCN(S(=O)(=O)C3(C(=O)NO)CCN(C4CC4)CC3)CC2)cc1F [Example 297]    31.1
6) CCCCOc1ccc(N2CCN(S(=O)(=O)C3(C(=O)NO)CCN(c4ccc(C)cc4)CC3)CC2)cc1 [Example 295]    0.1
7) C#CCN1CCC(C(=O)NO)(S(=O)(=O)N2CCN(c3ccc(OCCCC)cc3)CC2)CC1 [Example 303]    0.3
